- System: Plasmodium berghei
- Measurement description: Screen against P. berghei liver stage (PbLuc), transformed with Luciferase, at 2uM
- Assay type: functional, HepG2
- Condition summary: tested at 2 uM
Among all 68,000 compounds or so, about 2,700 (4%) showed an effect of 50% or more. This excerpt belongs to a sample that is enriched for strong results.
Entries and their INHIBITION
Observable: INHIBITION (%)

compound="Cc1cc(=O)n2ncnc2n1CC(O)c1cc(F)ccc1F (configuration not stated)" reported_measurement=6.97
compound=CC(=O)N(C)c1nc(Cn2nnnc2C2CCCC2)cs1 reported_measurement=-26.07
compound="CN(Cc1noc(C2CC2)n1)C1CCN(CCc2cnn(C)c2)C1 (configuration not stated)" reported_measurement=64.87
compound="CN(Cc1nnc(C2CC2)n1C)C1CCN(CCc2cnn(C)c2)C1 (configuration not stated)" reported_measurement=81.1
compound="CC(C)c1cnc(CN(C)C2CCN(CCc3cnn(C)c3)C2)o1 (configuration not stated)" reported_measurement=5.59
compound="CC(C)c1cnc(CN(C)C2CCN(CCCc3cnn(C)c3)C2)o1 (configuration not stated)" reported_measurement=59.23
compound=Cc1cc(NS(=O)(=O)c2ccc(Cl)s2)ccc1-n1cccc1C(=O)O reported_measurement=31.15
compound=CC(C)(C)c1ncc(C(=O)NCCSc2ccccn2)c(O)n1 reported_measurement=68.02
compound="CC(C)(C)c1n[nH]cc1CNCC1CCN(C2CC2)C1 (configuration not stated)" reported_measurement=10.43
compound="CCN1CCC(CNCc2c[nH]nc2C(C)(C)C)C1 (configuration not stated)" reported_measurement=37.68
compound="Cc1cc(=O)n2ncnc2n1CC(O)c1ccccc1Cl (configuration not stated)" reported_measurement=5.36
compound=Cc1ccc(S(=O)(=O)Nc2ccc(-n3cccc3C(=O)O)c(C)c2)s1 reported_measurement=-1.14

* * *

- Tested on: Plasmodium berghei
- Measurement description: Screen against P. berghei liver stage (PbLuc), transformed with Luciferase, at 2uM
- Format: functional, HepG2
- Condition summary: tested at 2 uM
Hit rate of the full screen: of about 68,000 compounds, about 2,700 (4%) showed an effect of 50% or more. What follows is part of a selection rich in strong results, with near analogues and random picks from the rest.
Observable: INHIBITION (%)

compound="Cc1ccc(CNC(=O)CN2CCN(CC(O)C3CC3)CC2)cc1 (stereo unspecified)" observable=INHIBITION reported_measurement=-10.6
compound=Cc1ccc(OCCN(C)Cc2nc3c(cnn3C)c(=O)[nH]2)cc1 observable=INHIBITION reported_measurement=78.42
compound="OCCOCCN1CCCC1c1cccc(Cl)c1 (stereo unspecified)" observable=INHIBITION reported_measurement=-17.64
compound=CN(Cc1cccc(F)c1)S(=O)(=O)N1CCOCC1 observable=INHIBITION reported_measurement=46.57
compound="Cc1cc(N2CCCC2c2cc(Nc3cnccn3)nc(C)n2)ncn1 (stereo unspecified)" observable=INHIBITION reported_measurement=43.23
compound=CN(Cc1cccc(Cl)c1)S(=O)(=O)N1CCOCC1 observable=INHIBITION reported_measurement=50.74

* * *

- Tested on: Plasmodium berghei
- Measurement description: Screen against P. berghei liver stage (PbLuc), transformed with Luciferase, at 2uM
- Type: functional, HepG2
- Condition summary: tested at 2 uM
The whole screen tested about 68,000 compounds, of which about 2,700 (4%) showed an effect of 50% or more. Shown is part of a subset that was picked to be rich in strong results.
Observable: INHIBITION

molecule="OC1(CNC2CCN(c3ccccn3)CC2)CCc2ccccc21 (stereo unspecified)" observable=INHIBITION reported_measurement=29.13%
molecule="OC1(CNC2CCN(Cc3ccncc3)CC2)CCc2ccccc21 (stereo unspecified)" observable=INHIBITION reported_measurement=-49.57%
molecule=CC(C)CC(=O)N1CC[C@H]2N(C)CC[C@@]2(C(=O)Nc2ccccc2)CC1 observable=INHIBITION reported_measurement=11.87%
molecule="Cc1csc(N2CCC(NCC3(O)CCc4ccccc43)CC2)n1 (stereo unspecified)" observable=INHIBITION reported_measurement=72.05%
molecule=CC(C)C(=O)N1CC[C@H]2N(C)CC[C@@]2(C(=O)Nc2ccccc2)CC1 observable=INHIBITION reported_measurement=17.69%
molecule="O=C(NC1CCC1)C1CCC2(CN(C(=O)c3ccno3)C2)O1 (stereo unspecified)" observable=INHIBITION reported_measurement=57.85%
